# Tgt: GNAI1
# Reported Conditions: ASO; further: test concentration or dose not given here
These antisense oligonucleotides have a phosphorothioate backbone; sugars and methylation of C are not fully specified.
The threshold is 0.8. Values of remaining target (mRNA or protein) (fraction of control) beneath it are tagged Criterion met; values meeting or exceeding it are tagged Criterion not met.

[[record]]
input_sequence = "CATGAACATAAATAAAGC"
assigned_class = "Criterion not met"

[[record]]
input_sequence = "TCACCAAAGTCTATCTTC"
assigned_class = "Criterion not met"

[[record]]
input_sequence = "AAACTAAAGTCATAAATA"
assigned_class = "Criterion not met"

[[record]]
input_sequence = "TTTGAAAGTAAAATGGGT"
assigned_class = "Criterion not met"

[[record]]
input_sequence = "TCATTTCTTCATCTTCAG"
assigned_class = "Criterion not met"

[[record]]
input_sequence = "GTTGAGTCGGGATGTAAT"
assigned_class = "Criterion not met"


Determine whether this sequence shows remaining target (mRNA or protein) (fraction of control) lower than 0.8 (ties excluded): `TCACCCTAAAATCCTAAG` Criterion not met

Strictly below 0.8 in remaining target (mRNA or protein) (fraction of control)? `CAAGTCATTCAAATAGTA` Criterion not met

In the record for `TGATCCAAAGGCAGGTGT` , is remaining target (mRNA or protein) (fraction of control) less than 0.8? Criterion met

Find out if reported remaining target (mRNA or protein) (fraction of control) for `TAGATAAGGGCTGTAATG` is less than 0.8 Criterion not met

---

# Tgt: BIRC3
# Reported Conditions: ASO
These antisense oligonucleotides have a phosphorothioate backbone; sugars and methylation of C are not fully specified.
// remaining target (mRNA or protein) (fraction of control) lookup, one value per entry
Give your answer as a number; write no unit.

[[record]]
input_sequence = "AGCAAGCCACTCTGTCTC"
number = 0.5

[[record]]
input_sequence = "CTTCTCCAGGCTACTAGA"
number = 0.5


As a next step, examine the sequence that follows.
# input sequence: `GGGTCTCAGTATGCTGCC` ; wanted: its remaining target (mRNA or protein) (fraction of control) 0.79

---

Items are presented alongside their recorded remaining target (mRNA or protein) (fraction of control).
# Tgt: AKT3
# Reported Conditions: ASO
These antisense oligonucleotides have a phosphorothioate backbone; sugars and methylation of C are not fully specified.

These recorded examples may help you get a feel for the data.
[[record]]
input_sequence = "ATCAAGAGCCCTGAAAGC"
result = 0.29

[[record]]
input_sequence = "TTGGACTACAATTCATTC"
result = 0.72

[[record]]
input_sequence = "GTAGTCCACTGGAGACAT"
result = "≥ 1"

[[record]]
input_sequence = "ATTTGGATCCTTTATCAA"
result = "≥ 1"


Quick one: remaining target (mRNA or protein) (fraction of control) for `TGTCTCATAATTTCTTTT` ? ≥ 1

I am curious: what remaining target (mRNA or protein) (fraction of control) value has been reported for `TTGGTCGTTCTGTTTTCA` ? ≥ 1

Would you mind telling me what remaining target (mRNA or protein) (fraction of control) value was observed for `CTCTTTATATCCTATGAA` ? ≥ 1

Need remaining target (mRNA or protein) (fraction of control), item `GAGACATCTGATTATAAA` ≥ 1

Sample `GGAAGTATCTTGGCCTCC` — what was its remaining target (mRNA or protein) (fraction of control)? ≥ 1

Consider the sequence `AATGATTTTGCATCTGAA` and give its measured remaining target (mRNA or protein) (fraction of control). 0.94

What value of remaining target (mRNA or protein) (fraction of control) has been reported for the following sequence? `CTGTTTTCATTAACTGGC` ≥ 1

Given the entry `CTTTTGCGTCATCTGGTC` , report its measured remaining target (mRNA or protein) (fraction of control). ≥ 1

Any idea what remaining target (mRNA or protein) (fraction of control) was measured for `TCTGGTCCTCCACCAAGG` ? 0.26

Fill in the blank: the reported remaining target (mRNA or protein) (fraction of control) of `AGCCTGGATAGCTTCTGT` is ____. ≥ 1

Please look up its remaining target (mRNA or protein) (fraction of control): `TGTTCTCTCTATAACAGT` 0.94

What value of remaining target (mRNA or protein) (fraction of control) has been recorded for this entry: `GTAATAGTCTGAGCTGTA` 0.88

Entry `AAGGTAAATCCACATCTT` : reported remaining target (mRNA or protein) (fraction of control) = ? 0.66

---

# Tgt: WWP1
# Reported Conditions: ASO
These antisense oligonucleotides have a phosphorothioate backbone; sugars and methylation of C are not fully specified.
Reported remaining target (mRNA or protein) (fraction of control) is given for each of the following sequences.

[[record]]
input_sequence = "GAGACGGAGATGAAGGTGTG"
tgt = "WWP1"
result = "≥ 1"

[[record]]
input_sequence = "GCATAGCTCCCTGCAATTGG"
tgt = "WWP1"
result = "≥ 1"

[[record]]
input_sequence = "AACATTGAAGCCGAATAGAG"
tgt = "WWP1"
result = "≥ 1"

[[record]]
input_sequence = "TTCAAAATTTCGGACAGATT"
tgt = "WWP1"
result = "≥ 1"

[[record]]
input_sequence = "AGAATGGTAAAGAGAAACCA"
tgt = "WWP1"
result = "≥ 1"


WWP1 / remaining target (mRNA or protein) (fraction of control) / `GATCCACATAATAGGTTCTA` : value? ≥ 1

Can you look up remaining target (mRNA or protein) (fraction of control) on WWP1 for `ACTAGAGTGCTTGTAGGTAC` ? ≥ 1

I'm curious: which remaining target (mRNA or protein) (fraction of control) was measured for `GCAGGCTCAGATGCGAGTGG` tested on WWP1? ≥ 1

Please state recorded remaining target (mRNA or protein) (fraction of control) (tested on WWP1) of `GAATTAGAGGTGTCAGGCTC` ≥ 1

State its remaining target (mRNA or protein) (fraction of control) on WWP1: `ATCTGCAGACAATAGTTGTT` ≥ 1

---

# Tgt: SRA1
# Reported Conditions: ASO
These antisense oligonucleotides have a phosphorothioate backbone; sugars and methylation of C are not fully specified.
Quantity: remaining target (mRNA or protein) (fraction of control)
Reply with just the number.

Solved cases (5 shown):
[[record]]
input_sequence = "AAGGAGGTGGAGGCCCCA"
number = 0.72

[[record]]
input_sequence = "CATCACATACCTGCTTCC"
number = 0.68

[[record]]
input_sequence = "AACTTTCCTCCAGCCCAC"
number = 0.21

[[record]]
input_sequence = "TGAATGGAGAAGGGAGAA"
number = 0.75

[[record]]
input_sequence = "GCACCAGTAGAGCCATTC"
number = 0.3


Now look at this one.
# input sequence: `GAGGCCCGGAACTCCACT` ; wanted: its remaining target (mRNA or protein) (fraction of control) 0.89

---

Recorded measurements of remaining target (mRNA or protein) (fraction of control), one per entry
# Tgt: ETS2
# Reported Conditions: ASO
These antisense oligonucleotides have a phosphorothioate backbone; sugars and methylation of C are not fully specified.

Example sequences with recorded remaining target (mRNA or protein) (fraction of control):
[[record]]
input_sequence = "GTCCATATTCTTGATTCC"
result = "≥ 1"

[[record]]
input_sequence = "AGCTGTCCGCACCGTTCT"
result = "≥ 1"

[[record]]
input_sequence = "GCAGGTATAACTGGTTTG"
result = "≥ 1"

[[record]]
input_sequence = "TTTCTTGGTTTTCTTTGA"
result = "≥ 1"

[[record]]
input_sequence = "AACCCGTTGCACATCCAG"
result = "≥ 1"

[[record]]
input_sequence = "CAGCTCCAGGAGAAACTG"
result = "≥ 1"


Request: remaining target (mRNA or protein) (fraction of control), test system ETS2, entry `TAAGGCTTGACTCATCAC` ≥ 1

remaining target (mRNA or protein) (fraction of control) of `CATTCATGCCGAACCTCT` on ETS2? ≥ 1

What reported remaining target (mRNA or protein) (fraction of control) corresponds to `CTGCCTTTCCTGGGTCCT` on ETS2? ≥ 1

Identify the measured remaining target (mRNA or protein) (fraction of control) of `CGGCGCTTGGTCGGGACG` for ETS2. ≥ 1

Record `TTGCAGTGTTTGCTCTTC` : what is its remaining target (mRNA or protein) (fraction of control) with ETS2? ≥ 1

---

Recorded remaining target (mRNA or protein) (fraction of control), one value per entry.
# Tgt: PYGL
# Reported Conditions: ASO
These antisense oligonucleotides have a phosphorothioate backbone; sugars and methylation of C are not fully specified.
Please reply with the number alone, leaving off any unit.

[[record]]
input_sequence = "ATGCTCATGCCAAAGATGAA"
tgt = "PYGL"
number = 0.98


Turning now to a further sequence:
Quick check: remaining target (mRNA or protein) (fraction of control) on PYGL, item `TTCTGGTTGAGCTCCCATGC` ? 0.52
